// provenance: the supplement of paper PMC10567573

Quick list: protein stability index per entry.
B1: S100A14 (parent)
chain: KIANLGSCNDSKLEFRSFWELIGE

Variants of: B1
experiment-summary: protein stability index of a GFP-peptide fusion (GPS, HEK-293T) (PSI 1-6); higher = more stable;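 also: lentivirally expressed fusions sorted by FACS into six bins by GFP to DsRed ratio, PSI derived from sequencing read proportions per bin multiplied by bin number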
condition-summary: c terminus: a fixed tail appended

- sequence-text: "KIANLGSCNGSKLEFRSFWELIGE [D10G]"
  protein stability index: 2.84

Lab note: KIANLGSCNDGKLEFRSFWELIGE [S11G] gave protein stability index of 1.53

protein stability index reading for KIANLGSCGDSKLEFRSFWELIGE [N9G] : 2.22

The recorded protein stability index for entry KIASLGSCNDSKLEFRSFWELIGE [N4S] equals 2

Item: KIANLGSCNDSKLENRSFWELIGE [F15N] | protein stability index: 2.22

Please fill in: protein stability index reported for KIANLGSCNDSKLEFRSFWRLIGE [E20R] = 2.45
